# system-tested: ACAT (Rattus norvegicus)
# Construct: The rat peritoneal-derived macrophage was prepared; endogenous in cells; host or cells: rat peritoneal macrophages (primary)
# Sequence (O70536 whole entry): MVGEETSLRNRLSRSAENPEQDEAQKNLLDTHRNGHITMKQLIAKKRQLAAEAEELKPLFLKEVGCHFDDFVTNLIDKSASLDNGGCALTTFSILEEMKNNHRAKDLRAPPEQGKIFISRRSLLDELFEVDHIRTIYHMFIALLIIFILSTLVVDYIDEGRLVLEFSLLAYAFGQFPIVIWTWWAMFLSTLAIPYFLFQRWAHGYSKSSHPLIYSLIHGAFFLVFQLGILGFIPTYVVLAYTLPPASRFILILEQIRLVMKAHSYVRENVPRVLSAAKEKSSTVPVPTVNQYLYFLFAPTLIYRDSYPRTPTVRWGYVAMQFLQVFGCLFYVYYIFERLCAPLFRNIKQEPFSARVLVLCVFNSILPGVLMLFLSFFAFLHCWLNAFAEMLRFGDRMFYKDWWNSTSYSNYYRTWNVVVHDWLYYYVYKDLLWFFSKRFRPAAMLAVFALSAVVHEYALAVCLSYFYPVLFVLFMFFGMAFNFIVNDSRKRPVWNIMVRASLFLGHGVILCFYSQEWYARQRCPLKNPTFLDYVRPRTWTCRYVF
# assay-remarks: Assay of ACAT inhibitory activity in the macrophage derived from rat peritoneal
# Assay type: cell-based
# setup-conditions: [9,10-3H]oleic acid, exogenous cholesterol in liposome
measured-parameter: pIC50
// pIC50: -log10(molar conc.)

### Prompt Item CCCCn1cc(C)c(-c2cc(C#CCN(CC)CC)ccc2OC)c(NC(=O)Nc2c(C(C)C)cccc2C(C)C)c1=O : provide pIC50
### Response 7.80
